Quick list: IC50 per entry.
molecular target: human neutrophil derived cathepsin G (Homo sapiens); experiment: Measurement of cathepsin G inhibitive activity (conversion of Ang I to Ang II, HPLC); settings: Ang I substrate, 37° C., 30 min, pH 7.5
Sequence (P08311 21-244 limits assumed): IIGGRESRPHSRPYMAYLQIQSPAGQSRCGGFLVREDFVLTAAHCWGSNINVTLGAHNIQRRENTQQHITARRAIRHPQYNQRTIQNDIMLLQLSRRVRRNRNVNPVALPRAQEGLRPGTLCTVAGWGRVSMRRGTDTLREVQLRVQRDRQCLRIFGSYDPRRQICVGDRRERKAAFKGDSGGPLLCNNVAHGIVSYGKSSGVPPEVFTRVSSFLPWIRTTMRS

{"smiles.data": "COC(=O)c1ccc(S(=O)(=O)n2c(=O)[nH]c3cc(Cl)ccc3c2=O)cc1", "IC50, nM": 160}
{"smiles.data": "CC(C)(C)OC(=O)Cn1c(=O)n(S(=O)(=O)c2ccc(Cl)cc2)c(=O)c2ccc(Cl)cc21", "IC50, nM": 37000}
{"smiles.data": "O=c1[nH]c2cc(Cl)ccc2c(=O)n1S(=O)(=O)c1ccc(Cl)cc1", "IC50, nM": 520}
